system-tested: integrin α4β1 (RAMOS human cells adhering to VCAM-1) (Homo sapiens, UniProt P05556+P13612)
Construct: Ramos cells, which express integrin α4β1; host or cells: RAMOS
test-method-notes: Integrin α4β1-VCAM cell adhesion assay (RAMOS cells)
Type: cell-based
condition-notes: Ramos cells adhering to VCAM; read-out: Ramos Adhesion α4β1/VCAM IC50
reported-endpoint: pIC50
pIC50 field: float, defined as -log10 of concentration (mol/L).

| molecule | pIC50 |
| --- | --- |
| CC(C)C[C@@H]1NC(=O)C[C@H](CCCCN)N(C)C(=O)[C@H](CCCCNC(=O)CCCCCCCCC(=O)NCCCC[C@@H]2NC(=O)[C@@H]3CCCN3[C@H](C(=O)NC(C)(C)C)[C@H](C)NC(=O)[C@H]([C@@H](C)O)NC(=O)[C@H](CC(=O)O)NC(=O)[C@H](CC(C)C)NC(=O)C[C@H](CCCCN)N(C)C2=O)NC(=O)[C@@H]2CCCN2[C@H](C(=O)NC(C)(C)C)[C@H](C)NC(=O)[C@H]([C@@H](C)O)NC(=O)[C@H](CC(=O)O)NC1=O [Compound 530] | 4.98 |

For the next question, use this molecule.
Data request: Name the recorded pIC50 for CC(C)C[C@@H]1NC(=O)c2ccc(-c3ccc(N4CCN(C(=O)C5(C(=O)N6CCN(c7ccc(-c8ccc9cc8CNC(=O)[C@@H]8CCCN8[C@H](C(=O)NC(C)(C)C)[C@H](C)NC(=O)[C@H]([C@@H](C)O)NC(=O)[C@H](CC(=O)O)NC(=O)[C@H](CC(C)C)NC9=O)cc7)CC6)Cc6ccccc6C5)CC4)cc3)c(c2)CNC(=O)[C@@H]2CCCN2[C@H](C(=O)NC(C)(C)C)[C@H](C)NC(=O)[C@H]([C@@H](C)O)NC(=O)[C@H](CC(=O)O)NC1=O [Compound 461] .
Data returned: 5.91

----------
system-tested: integrin α4β7 (RPMI8866 human cells adhering to MAdCAM-1) (Homo sapiens, UniProt P13612+P26010)
Construct: RMP18866 cells, which express integrin α4β7; host or cells: RPMI8866
Sequence (P13612 34-1032): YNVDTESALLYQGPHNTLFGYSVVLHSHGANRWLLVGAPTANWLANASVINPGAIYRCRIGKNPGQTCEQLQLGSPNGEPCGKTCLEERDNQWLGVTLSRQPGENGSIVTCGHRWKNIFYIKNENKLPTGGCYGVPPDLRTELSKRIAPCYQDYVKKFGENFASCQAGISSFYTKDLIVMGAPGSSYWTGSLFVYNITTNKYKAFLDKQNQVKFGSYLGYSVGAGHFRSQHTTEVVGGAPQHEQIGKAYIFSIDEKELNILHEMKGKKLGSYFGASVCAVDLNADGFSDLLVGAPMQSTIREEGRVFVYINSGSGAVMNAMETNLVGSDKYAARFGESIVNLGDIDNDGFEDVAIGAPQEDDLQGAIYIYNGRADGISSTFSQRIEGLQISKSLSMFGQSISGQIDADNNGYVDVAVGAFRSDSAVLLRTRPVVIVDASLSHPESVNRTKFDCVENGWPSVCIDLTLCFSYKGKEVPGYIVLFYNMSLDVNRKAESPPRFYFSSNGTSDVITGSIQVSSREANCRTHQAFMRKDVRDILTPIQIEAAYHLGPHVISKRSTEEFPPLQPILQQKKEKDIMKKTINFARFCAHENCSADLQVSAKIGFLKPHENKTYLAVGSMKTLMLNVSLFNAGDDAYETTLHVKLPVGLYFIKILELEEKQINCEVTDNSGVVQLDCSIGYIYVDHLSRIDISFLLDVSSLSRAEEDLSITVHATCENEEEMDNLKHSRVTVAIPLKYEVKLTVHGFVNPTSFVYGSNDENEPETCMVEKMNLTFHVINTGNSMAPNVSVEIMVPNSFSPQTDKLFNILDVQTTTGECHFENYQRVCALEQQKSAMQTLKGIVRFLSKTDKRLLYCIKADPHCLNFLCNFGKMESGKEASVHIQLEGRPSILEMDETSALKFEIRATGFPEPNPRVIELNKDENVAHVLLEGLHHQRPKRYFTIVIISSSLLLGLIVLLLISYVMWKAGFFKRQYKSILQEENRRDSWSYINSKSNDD
Sequence (P26010 20-798): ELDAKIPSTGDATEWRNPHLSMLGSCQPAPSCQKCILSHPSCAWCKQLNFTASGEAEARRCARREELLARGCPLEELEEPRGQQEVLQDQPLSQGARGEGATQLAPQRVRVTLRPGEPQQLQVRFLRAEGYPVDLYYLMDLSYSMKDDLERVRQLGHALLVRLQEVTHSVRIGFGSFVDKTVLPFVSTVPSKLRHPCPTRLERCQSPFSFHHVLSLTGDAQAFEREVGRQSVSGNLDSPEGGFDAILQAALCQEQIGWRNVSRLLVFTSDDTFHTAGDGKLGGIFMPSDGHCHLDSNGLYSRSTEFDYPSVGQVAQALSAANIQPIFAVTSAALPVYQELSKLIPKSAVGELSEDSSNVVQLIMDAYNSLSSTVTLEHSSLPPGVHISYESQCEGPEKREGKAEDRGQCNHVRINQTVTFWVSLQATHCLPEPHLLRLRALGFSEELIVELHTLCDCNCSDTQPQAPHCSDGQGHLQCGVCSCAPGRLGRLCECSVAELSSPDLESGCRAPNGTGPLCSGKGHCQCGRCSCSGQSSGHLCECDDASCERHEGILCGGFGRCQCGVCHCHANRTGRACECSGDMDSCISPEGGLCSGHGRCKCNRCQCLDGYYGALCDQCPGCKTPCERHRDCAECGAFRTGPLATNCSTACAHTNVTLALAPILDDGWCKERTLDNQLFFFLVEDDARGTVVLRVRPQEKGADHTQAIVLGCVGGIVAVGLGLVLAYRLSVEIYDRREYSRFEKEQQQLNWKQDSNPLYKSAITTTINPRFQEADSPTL
test-method-notes: Integrin α4β7-MAdCAM cell adhesion assay (RPMI8866 cells)
Assay type: cell-based
condition-notes: RPMI8866 cells adhering to MAdCAM; read-out: RPMI8866 Adhesion α4β7/MAdCAM IC50
reported-endpoint: pIC50
Lab note — pIC50 values are minus log10 of concentrations in M.

Data request: What does the record list as pIC50 for `CC(C)C[C@@H]1NC(=O)c2ccc(-c3ccc(N4CCN(C(=O)c5ccc(-c6cccc(C(=O)N7CCN(c8ccc(-c9ccc%10cc9CNC(=O)[C@@H]9CCCN9[C@H](C(=O)NC(C)(C)C)[C@H](C)NC(=O)[C@H]([C@@H](C)O)NC(=O)[C@H](CC(=O)O)NC(=O)[C@H](CC(C)C)NC%10=O)cc8)CC7)n6)nc5)CC4)cc3)c(c2)CNC(=O)[C@@H]2CCCN2[C@H](C(=O)NC(C)(C)C)[C@H](C)NC(=O)[C@H]([C@@H](C)O)NC(=O)[C@H](CC(=O)O)NC1=O` ?
Data returned: 7.01

Data provenance: patent US11713338B2
